assay.method.text: Parallel artificial membrane permeability assay (PAMPA)
Format: in vitro ADME
test.settings: 10.0 µM donor solution, 4 h, room temperature
Entries and their Peff (PAMPA permeability) values follow.

- compound: "CC[C@@]1(O)C(=O)OCc2c1cc1n(c2=O)Cc2c-1nc1cc(F)c(C)c3c1c2[C@@H](NC(=O)C(O)c1ccccc1)CC3 (single isomer, unassigned)"
  Peff (PAMPA permeability): "3.43 10^-6 cm/s"
- compound: "CC[C@@]1(O)C(=O)OCc2c1cc1n(c2=O)Cc2c-1nc1cc(F)c(C)c3c1c2[C@@H](NC(=O)[C@H](O)C(C)C)CC3"
  Peff (PAMPA permeability): "2.67 10^-6 cm/s"
- compound: "CC[C@@]1(O)C(=O)OCc2c1cc1n(c2=O)Cc2c-1nc1cc(F)c(C)c3c1c2[C@@H](NC(=O)C(O)C(F)(F)F)CC3 (stereo partly shown)"
  Peff (PAMPA permeability): "4.96 10^-6 cm/s"
- compound: "CC[C@@]1(O)C(=O)OCc2c1cc1n(c2=O)Cc2c-1nc1cc(F)c(C)c3c1c2[C@@H](NC(=O)C1(O)CCCCC1)CC3"
  Peff (PAMPA permeability): "6.12 10^-6 cm/s"
